System: HT29 colon
Assay: NCI-60 one-dose screen, 48 h
Conditions: 10 µM unless noted
About 83,000 compounds went through this panel and 20% of them were active in at least one assay; those are over-represented in the sample as a whole. The source made the active and inactive calls. Rule for the calls: active = growth percent below 10; inactive = the rest.
Form entry, call: pick from active, inactive

Outcome logged for NNC(=O)CSc1nc2scc(-c3ccccc3)c2c(=O)n1-c1ccccc1 in this assay:
inactive

Outcome logged for N/C(=N\OC(=O)c1ccccc1)C(C(=O)NOC(=O)c1ccccc1)C1CCCCC1 (configuration not stated) in this assay:
inactive

Outcome logged for COc1cc(OC)c(C(=O)/C=C/c2cccc(OC(C)=O)c2)cc1CC=C(C)C in this assay:
inactive

Outcome logged for Nc1cc(C(=O)O)cc(C(=O)O)c1 in this assay:
inactive

Outcome logged for COc1ccc(/C=N/NC(N)=S)c(OC)n1 in this assay:
inactive

Outcome logged for CCc1c(C)c2ccc(O)c(-c3cc(-c4ccccc4)c(C#N)c(=O)[nH]3)c2oc1=O in this assay:
inactive

Outcome logged for COC(=O)[C@@H](Cc1c[nH]c2ccccc12)NC(=O)/C=C/c1ccccc1 in this assay:
inactive

Outcome logged for CCN(CC)c1ccc(/C=N/N=C(N)N)cc1 in this assay:
active

Outcome logged for ClCCn1cnc2c(SCc3ccccc3Cl)ncnc21 in this assay:
inactive

Outcome logged for O=C1OCC2=C1C(c1ccccc1)c1cc3c(cc1N2CCO)OCO3 (configuration not stated) in this assay:
inactive

Outcome logged for Nc1c(N)c2ccccc2c2ccccc12 in this assay:
inactive

Outcome logged for CN(C)N1C(=O)c2c(Cl)c(Cl)c(Cl)c(Cl)c2C1=O in this assay:
inactive
